ASSAY_DETAILS: Critical micelle concentration of the compound
Format: physicochemical
Let's look at some compounds and their measured CMC.

COMPOUND: CCCCCCC(N)C(=O)N(O)CCCN(C)C.Cl.Cl (stereo not given)
RESULT_UNITS: µM
RELATION_QUALIFIER: >
CMC: 500
//
COMPOUND: CCCCCCCCCCCCCCCCCCC(NC(=O)OC(C)(C)C)C(=O)N(CC[N+](C)(C)C)OCc1ccccc1.[I-] (stereo not given)
RESULT_UNITS: µM
RELATION_QUALIFIER: =
CMC: 75
//
COMPOUND: CCCCCCCCCCC(N)C(=O)N(CC[N+](C)(C)C)OCc1ccccc1.Cl.[Cl-] (stereo not given)
RESULT_UNITS: µM
RELATION_QUALIFIER: >
CMC: 500
//
COMPOUND: CCCCCCCCCCCCCCCCCCC(N)C(=O)N(O)CC[N+](C)(C)C.Cl.[Cl-] (stereo not given)
RESULT_UNITS: µM
RELATION_QUALIFIER: =
CMC: 50
//
COMPOUND: CCCCCCC(N)C(=O)N(CC[N+](C)(C)C)OCc1ccccc1.Cl.[Cl-] (stereo not given)
RESULT_UNITS: µM
RELATION_QUALIFIER: >
CMC: 500
